- Experiment summary: in vitro
- Conditions used: human, microsomes, pH 7.4
Reported property: half-life at 0.5 µM (h)

CCCc1cnc(N2CCC(Oc3ccn(-c4ccc(N5CCC(O)C5=O)c(C)n4)c(=O)c3)CC2)nc1 (centres unmarked) = 1.27
Cc1nc(-n2cc(Cl)c(OC3CCN(c4ncc(Cl)cn4)CC3)cc2=O)ccc1N1CCC(O)C1=O (centres unmarked) = 1.57
Cc1nc(-n2ccc(OC3CCN(c4ncc(Cl)cn4)CC3)cc2=O)ccc1N1CCC(O)C1=O (centres unmarked) = 1.68
Cc1nc(-n2cc(Cl)c(OC3CCN(c4ncc(Cl)cn4)CC3)cc2=O)ccc1N1CC[C@H](O)C1=O = 1.3
Cc1nc(-n2cc(Cl)c(OC3CCN(c4ncc(Cl)cn4)CC3)cc2=O)ccc1N1CC[C@@H](O)C1=O = 1.62
